# test system: Bacterial 70S ribosome
# assay explanation: Inhibition of Escherichia coli ribosome
Would you mind telling me the reported pIC50 of each entry?
In plain terms, pIC50 is the concentration in mol/L turned into minus its base-10 logarithm.

Request: # query: pIC50 of entry CC[C@H]1OC(=O)[C@H](C)[C@@H](O[C@H]2C[C@@](C)(OC)[C@@H](O)[C@H](C)O2)[C@H](C)[C@@H](O[C@@H]2O[C@H](C)C[C@H](N(C)C)[C@H]2O)[C@](C)(O)C[C@@H](C)CN(C)[C@H](C)[C@@H](O)[C@]1(C)O
Result: 6.52

Request: Next record, please: CC[C@H]1OC(=O)[C@H](C)[C@@H](O[C@H]2C[C@@](C)(OC)[C@@H](O)[C@H](C)O2)[C@H](C)[C@@H](O[C@@H]2O[C@H](C)C[C@H](N(C)C)[C@H]2O)[C@](C)(OC)C[C@@H](C)NC(=O)[C@H](C)[C@@H](O)[C@]1(C)O
Result: 7.00

Request: Next record, please: CC[C@H]1OC(=O)[C@H](C)[C@@H](O[C@H]2C[C@@](C)(OC)[C@@H](O)[C@H](C)O2)[C@H](C)[C@@H](O[C@@H]2O[C@H](C)C[C@H](N(C)C)[C@H]2O)[C@](C)(OC)C[C@@H](C)C(=O)N[C@H](C)[C@@H](O)[C@]1(C)O
Result: 5.89
